molecular target: p-BTK (C481S) (Homo sapiens (Human), UniProt Q06187, C481S); experiment: p-BTK cell experiment, HEK293 transfected with C481S-BTK plasmid (P-BTK Y223 sandwich ELISA); settings: HEK293 cells, compound cultured for two hours
Sequence (Q06187 whole entry C481S): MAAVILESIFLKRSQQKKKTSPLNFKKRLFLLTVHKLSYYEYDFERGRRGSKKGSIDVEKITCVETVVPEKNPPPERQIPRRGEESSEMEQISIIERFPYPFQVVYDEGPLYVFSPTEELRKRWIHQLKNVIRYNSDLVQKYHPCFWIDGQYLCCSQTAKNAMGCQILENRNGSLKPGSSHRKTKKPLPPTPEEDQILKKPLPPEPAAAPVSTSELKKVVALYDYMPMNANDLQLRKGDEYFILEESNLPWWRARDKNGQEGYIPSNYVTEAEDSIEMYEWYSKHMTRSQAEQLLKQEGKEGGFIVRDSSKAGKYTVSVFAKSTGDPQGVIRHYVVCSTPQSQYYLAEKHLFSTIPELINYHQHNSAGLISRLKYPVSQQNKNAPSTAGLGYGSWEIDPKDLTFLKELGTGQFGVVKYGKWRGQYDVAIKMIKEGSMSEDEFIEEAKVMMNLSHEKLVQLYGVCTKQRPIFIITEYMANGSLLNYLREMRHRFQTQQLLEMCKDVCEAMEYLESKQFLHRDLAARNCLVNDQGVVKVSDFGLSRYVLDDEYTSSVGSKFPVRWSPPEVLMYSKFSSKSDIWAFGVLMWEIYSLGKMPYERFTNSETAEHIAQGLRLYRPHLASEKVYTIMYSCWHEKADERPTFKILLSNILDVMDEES
Label satisfied when IC50 is strictly below 30 nM; otherwise label not satisfied.

* [2H]C([2H])([2H])[C@@]1(COC)Nc2c(cnc3[nH]cc(C(=O)c4ccc(Oc5ccccc5)cc4Cl)c23)NC1=O [Z149] | not satisfied
* COC[C@]1(C)Nc2c(cnc3[nH]cc(C(=O)c4ccc(Oc5ccccc5)cc4Cl)c23)NC1=O [Z13-1] | not satisfied
* N#C[C@@H]1CC[C@]2(C1)Nc1c(cnc3[nH]cc(C(=O)c4ccc(Oc5ccccc5)cc4Cl)c13)NC2=O (single isomer, unassigned) [Z26-1] | not satisfied
* O=C(c1ccc(Oc2ccccc2)cc1Cl)c1c[nH]c2ncc3c(c12)NC1(CCOCC1)C(=O)N3 [Z14] | satisfied
* O=C(c1ccc(Oc2ccccc2)cc1Cl)c1c[nH]c2ncc3c(c12)N[C@@]1(CC[C@H](O)C1)C(=O)N3 (single isomer, unassigned) [Z24-d] | satisfied
* O=C(c1ccc(Oc2ccccc2)cc1Cl)c1c[nH]c2ncc3c(c12)N[C@@]1(CCCOC1)C(=O)N3 (single isomer, unassigned) [Z16-2] | satisfied
* COCC1(C)Nc2c(cnc3[nH]cc(C(=O)c4ccc(Oc5cc(C)ccn5)cc4Cl)c23)NC1=O (single isomer, unassigned) [Z64-1] | not satisfied
* CC1(CO)Nc2c(cnc3[nH]cc(C(=O)c4ccc(Oc5ccccc5)cc4Cl)c23)NC1=O (centres unmarked) [Z9] | not satisfied
* COC[C@]1(C)Nc2c(cnc3[nH]cc(C(=O)c4ccc(Oc5ccccc5F)cc4Cl)c23)NC1=O [Z155] | not satisfied
* COC[C@]1(C)Nc2c(cnc3[nH]cc(C(=O)c4ccc(Oc5nccc(C)c5F)cc4Cl)c23)NC1=O [Z132] | not satisfied
* O=C(c1ccc(Oc2ccccc2)cc1Cl)c1c[nH]c2ncc3c(c12)N[C@]1(CC[C@H](O)C1)C(=O)N3 (single isomer, unassigned) [Z24-b] | not satisfied
* CN1CCC2(C1)Nc1c(cnc3[nH]cc(C(=O)c4ccc(Oc5ccccc5)cc4Cl)c13)NC2=O (centres unmarked) [Z2] | not satisfied
* [2H]C([2H])([2H])OC[C@]1(C)Nc2c(cnc3[nH]cc(C(=O)c4ccc(Oc5ccccc5F)cc4Cl)c23)NC1=O [Z160] | satisfied
* O=C(c1ccc(Oc2ccccc2)cc1Cl)c1c[nH]c2ncc3c(c12)NC1(CCC(N2CCOCC2)C1)C(=O)N3 (centres unmarked) [Z141] | satisfied

----------
Target: BTK (Homo sapiens (Human), UniProt Q06187)
Sequence (Q06187 whole entry): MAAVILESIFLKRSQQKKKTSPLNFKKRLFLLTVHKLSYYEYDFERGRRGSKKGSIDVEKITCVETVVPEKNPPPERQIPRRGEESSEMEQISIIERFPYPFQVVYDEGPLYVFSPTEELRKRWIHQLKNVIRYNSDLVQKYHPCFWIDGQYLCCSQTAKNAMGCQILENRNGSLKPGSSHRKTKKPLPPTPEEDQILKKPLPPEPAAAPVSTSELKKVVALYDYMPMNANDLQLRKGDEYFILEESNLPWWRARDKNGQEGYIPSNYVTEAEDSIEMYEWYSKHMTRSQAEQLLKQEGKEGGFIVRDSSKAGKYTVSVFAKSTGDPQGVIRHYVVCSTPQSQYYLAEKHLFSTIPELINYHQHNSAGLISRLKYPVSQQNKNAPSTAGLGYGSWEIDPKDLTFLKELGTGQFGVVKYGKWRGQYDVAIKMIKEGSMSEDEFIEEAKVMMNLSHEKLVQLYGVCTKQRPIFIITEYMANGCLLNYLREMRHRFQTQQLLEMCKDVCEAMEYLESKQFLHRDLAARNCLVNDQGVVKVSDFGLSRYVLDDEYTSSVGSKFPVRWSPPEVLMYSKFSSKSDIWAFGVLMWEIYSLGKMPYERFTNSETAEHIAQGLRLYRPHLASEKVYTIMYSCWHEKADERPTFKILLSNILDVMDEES
Assay: BTK enzyme experiment (ADP-Glo kinase assay)
Assay type: biochemical
Settings: 10 nM BTK, ATP 125 μM, Poly(Glu4, Tyr1), 90 minutes at 20° C.; read-out: BTK(WT) IC50
Method: A 3-fold gradient concentration stock solution of 1000× compound was prepared using DMSO and diluted 100-fold to 10× compound stock solution using reaction buffer (50 mM HEPES, pH 7.5, 0.0015% Briji-35, 2 mM DTT, 10 mM MgCl2), and the 10× compound stock solution was transferred to a 384-well plate. […] Finally, the kinase activity was detected according to the experimental steps provided by ADP-Glo™ kinase Assay Kit (Promega, #V9101), and finally the luminescence chemiluminescence value was read. […]
QUANTITY_KIND: IC50 (nM)

* COC[C@]1(C)Nc2c(cnc3[nH]cc(C(=O)c4ccc(Oc5cccc(C)n5)cc4Cl)c23)NC1=O | 24.5
* O=C(c1ccc(Oc2ccccc2)cc1Cl)c1c[nH]c2ncc3c(c12)N[C@@]1(CC[C@H](O)C1)C(=O)N3 (single isomer, unassigned) [Z24-d] | 3.4
* C[C@]1(CO)Nc2c(cnc3[nH]cc(C(=O)c4ccc(Oc5ccccc5)cc4Cl)c23)NC1=O (single isomer, unassigned) | 20
* CN1CCC2(C1)Nc1c(cnc3[nH]cc(C(=O)c4ccc(Oc5ccccc5F)cc4Cl)c13)NC2=O (stereo not drawn) | 19.3
* COCC1(C)Nc2c(cnc3[nH]cc(C(=O)c4ccc(Oc5cc(C6CC6)ccn5)cc4Cl)c23)NC1=O (single isomer, unassigned) [Z73-2] | 34.3
* COCC1(C)Nc2c(cnc3[nH]cc(C(=O)c4ccc(Oc5cc(C)ccn5)cc4F)c23)NC1=O (single isomer, unassigned) [Z69-2] | 17.5

----------
IC50 overview
molecular target: p-BTK (C481S) (Homo sapiens (Human), UniProt Q06187, C481S); assay: p-BTK cell experiment, HEK293 transfected with C481S-BTK plasmid (P-BTK Y223 sandwich ELISA); format: cell-based; conditions: HEK293 cells, compound cultured for two hours
QUANTITY_KIND: IC50 (nM)

• [2H]C([2H])([2H])OC[C@]1(C)Nc2c(cnc3[nH]cc(C(=O)c4ccc(Oc5ccccc5)cc4Cl)c23)NC1=O (single isomer, unassigned) [Z66-1] = 38.1
• O=C(c1ccc(Oc2ccccc2)cc1Cl)c1c[nH]c2ncc3c(c12)N[C@@]1(CC[C@@H](O)C1)C(=O)N3 (single isomer, unassigned) [Z24-a] = 50
• COCC1(C)Nc2c(cnc3[nH]cc(C(=O)c4ccc(Oc5cc(C)ccn5)cc4Cl)c23)NC1=O (stereo not drawn) [Z64] = 90

----------
molecular target: BTK (C481S) (Homo sapiens (Human), UniProt Q06187, C481S); assay: BTK C481S enzyme experiment (ADP-Glo kinase assay); conditions: 10 nM BTK C481S, ATP 125 μM, Poly(Glu4, Tyr1), 90 minutes at 20° C.
Sequence (Q06187 whole entry C481S): as the sequence (Q06187 whole entry) above, with C481S counted along it
pIC50: −log10 of the molar value.
QUANTITY_KIND: pIC50

• N#C[C@@H]1CC[C@]2(C1)Nc1c(cnc3[nH]cc(C(=O)c4ccc(Oc5ccccc5)cc4Cl)c13)NC2=O (single isomer, unassigned) = 7.81
• COC[C@]1(C)Nc2c(cnc3[nH]cc(C(=O)c4ccc(Oc5ccccc5OC)cc4Cl)c23)NC1=O = 7.78
• CCOC[C@]1(C)Nc2c(cnc3[nH]cc(C(=O)c4ccc(Oc5ccccc5)cc4Cl)c23)NC1=O (single isomer, unassigned) = 7.99
• COC[C@]1(C)Nc2c(cnc3[nH]cc(C(=O)c4ccc(Oc5cccc(F)c5OC)cc4Cl)c23)NC1=O = 7.74
• COC[C@]1(C)Nc2c(cnc3[nH]cc(C(=O)c4cc(F)ccc4Cl)c23)NC1=O = 7.73
• COC[C@]1(C)Nc2c(cnc3[nH]cc(C(=O)c4ccccc4Cl)c23)N=C1OC = 8.00
• CCOC[C@]1(C)Nc2c(cnc3[nH]cc(C(=O)c4ccc(Oc5cc(C)ccn5)cc4Cl)c23)NC1=O = 7.92
• N#C[C@H]1CC[C@@]2(C1)Nc1c(cnc3[nH]cc(C(=O)c4ccc(Oc5ccccc5)cc4Cl)c13)NC2=O (single isomer, unassigned) [Z26-2] = 7.76
• COC[C@]1(C)Nc2c(cnc3[nH]cc(C(=O)c4ccccc4Br)c23)NC1=O = 8.01
• COCC1(C)Nc2c(cnc3[nH]cc(C(=O)c4ccc(Oc5cc(C)ccn5)cc4Cl)c23)NC1=O (stereo not drawn) [Z64] = 7.88
• COC[C@]1(C)Nc2c(cnc3[nH]cc(C(=O)c4ccc(Oc5ccccc5)cc4)c23)NC1=O = 7.54
• O=C(c1ccc(Oc2ccccc2)cc1Cl)c1c[nH]c2ncc3c(c12)N[C@]1(CC[C@H](O)C1)C(=O)N3 (single isomer, unassigned) [Z24-b] = 8.24
• COC[C@]1(C)Nc2c(cnc3[nH]cc(C(=O)c4ccc(OC5CCCC5)cc4Cl)c23)NC1=O = 7.15
• COC[C@]1(C)Nc2c(cnc3[nH]cc(C(=O)c4ccc(Oc5ccccc5Cl)cc4Cl)c23)NC1=O = 7.52
• CN1C(=O)[C@@](C)(CO)Nc2c1cnc1[nH]cc(C(=O)c3ccc(Oc4ccccc4)cc3Cl)c21 (single isomer, unassigned) = 7.68

----------
target: BTK (C481S) (Homo sapiens (Human), UniProt Q06187, C481S); assay: BTK C481S enzyme experiment (ADP-Glo kinase assay); details: 10 nM BTK C481S, ATP 125 μM, Poly(Glu4, Tyr1), 90 minutes at 20° C.
QUANTITY_KIND: IC50 (µM)

* CC1(C)COc2cnc3[nH]cc(C(=O)c4ccccc4Cl)c3c2N1 | 0.0151
* COC[C@]1(C)Nc2c(cnc3[nH]cc(C(=O)c4ccc(Oc5ccccc5F)cc4F)c23)NC1=O | 0.0105
* CN1C(=O)C2(CCOCC2)Nc2c1cnc1[nH]cc(C(=O)c3ccc(Oc4ccccc4)cc3Cl)c21 | 0.0072
* Cc1ccnc(Oc2ccc(C(=O)c3c[nH]c4ncc5c(c34)NC3(CCOCC3)C(=O)N5C)c(Cl)c2)c1 | 0.0372

Cited source: patent US20240360154A1
